experiment_description: CCTE_Harrill_HTTr_Viability_MCF7: CCTE's 6-hour Cell Viability Assessment for the High-Throughput Transcriptomics (HTTr) Platform, in MCF-7 cells cultured in DMEM + 10% fetal bovine serum, Harrill Lab (AID 2284010)
Activity calls are given as the source filed them. Rule for the calls: active = hit-call score of the fitted dose curve at least 0.9, where 1 is the maximum; inactive = score below 0.9.
Outcomes: class 1 (active), class 0 (inactive)

[
  {
    "compound": "Cc1ccc(S(=O)(=O)NC(=O)NN2CCCCCC2)cc1",
    "group": "class 0"
  },
  {
    "compound": "Cc1nc(-c2ccccn2)ncc1C(=O)Nn1cc(C)c2cc(F)ccc21",
    "group": "class 0"
  },
  {
    "compound": "CCCCCCCC1CCC(=O)O1 (configuration not stated)",
    "group": "class 0"
  },
  {
    "compound": "NC(=O)N(O)[C@@H]1COc2cc(OCc3ccccc3)ccc21",
    "group": "class 0"
  },
  {
    "compound": "C[C@]12C=CC(=O)C=C1CC[C@H]1[C@@H]3C[C@@H](O)[C@](O)(C(=O)CO)[C@@]3(C)C[C@H](O)[C@@]12F",
    "group": "class 0"
  },
  {
    "compound": "CCCOc1ccc(S(=O)(=O)N2CCN(CC)CC2)cc1-c1nc2c(CC)n(Cc3ccccn3)nc2c(=O)[nH]1",
    "group": "class 0"
  },
  {
    "compound": "COCc1nnc(-c2ccc[n+]([O-])c2)n1-c1c(Cl)c(Cl)cc2[nH]c(=O)c(=O)[nH]c12",
    "group": "class 0"
  },
  {
    "compound": "CC(=O)c1ccccc1",
    "group": "class 0"
  },
  {
    "compound": "COc1cc2c(c(OC)c1OC)-c1ccc(OC)c(=O)cc1[C@@H](NC(C)=O)CC2",
    "group": "class 0"
  },
  {
    "compound": "CCOC(N)=O",
    "group": "class 0"
  },
  {
    "compound": "O=S(=O)(O)c1ccc(N=Nc2c(O)ccc3cc(S(=O)(=O)O)ccc23)cc1",
    "group": "class 0"
  },
  {
    "compound": "CCc1cccc(CC)c1N",
    "group": "class 0"
  },
  {
    "compound": "COc1cc(C(C)C)c2c(c1)S(=O)(=O)N(COc1cc(=O)n3cccc(OCCN4CCCCC4)c3n1)C2=O",
    "group": "class 0"
  },
  {
    "compound": "CCCC(CCC)C(=O)O",
    "group": "class 0"
  },
  {
    "compound": "COS(C)(=O)=O",
    "group": "class 0"
  },
  {
    "compound": "O=C(N[C@H](CO)[C@H](O)c1ccc([N+](=O)[O-])cc1)C(Cl)Cl",
    "group": "class 0"
  },
  {
    "compound": "O=C1CN(N=Cc2ccc([N+](=O)[O-])o2)C(=O)N1",
    "group": "class 0"
  },
  {
    "compound": "c1ccc(C(O[C@@H]2CCCN(CCc3ccc4c(c3)OCO4)C2)c2ccccc2)cc1",
    "group": "class 0"
  },
  {
    "compound": "NC(=O)NN=Cc1ccc([N+](=O)[O-])o1",
    "group": "class 0"
  },
  {
    "compound": "CCN(CC)C(=S)SSC(=S)N(CC)CC",
    "group": "class 0"
  },
  {
    "compound": "S=P(N1CC1)(N1CC1)N1CC1",
    "group": "class 0"
  },
  {
    "compound": "C[C@@H](Oc1ccc(CNC(=O)c2cccnc2Oc2ccc3c(c2)OCO3)c(F)c1)C(=O)O",
    "group": "class 0"
  },
  {
    "compound": "OCCOCCOCCO",
    "group": "class 0"
  },
  {
    "compound": "c1ccc2c(c1)-c1cccc3c1c-2cc1ccccc13",
    "group": "class 0"
  },
  {
    "compound": "O=C(O)[C@H](O)[C@@H](O)C(=O)O",
    "group": "class 0"
  },
  {
    "compound": "O=C(NO)C1(NS(=O)(=O)c2ccc(Oc3ccc(F)cc3)cc2)CCOCC1",
    "group": "class 0"
  },
  {
    "compound": "Cc1ncc([C@@H](CCCCCCc2ccc3c(n2)NCCC3)CC(=O)O)cn1",
    "group": "class 1"
  },
  {
    "compound": "OC[C@H]1O[C@@H]2O[C@H]3[C@H](O)[C@@H](O)[C@@H](O[C@H]4[C@H](O)[C@@H](O)[C@@H](O[C@H]5[C@H](O)[C@@H](O)[C@@H](O[C@H]6[C@H](O)[C@@H](O)[C@@H](O[C@H]7[C@H](O)[C@@H](O)[C@@H](O[C@H]1[C@H](O)[C@H]2O)O[C@@H]7CO)O[C@@H]6CO)O[C@@H]5CO)O[C@@H]4CO)O[C@@H]3CO",
    "group": "class 0"
  },
  {
    "compound": "CCCCCCCC/C=C\\CCCCCCCC(=O)OC[C@@H](O)[C@H]1OC[C@H](O)[C@H]1O",
    "group": "class 0"
  },
  {
    "compound": "Cc1nccn1-c1ccc(Sc2cccc(C3(C(N)=O)CCOCC3)c2)cc1",
    "group": "class 0"
  },
  {
    "compound": "CCCCCCOC(=O)CC(CC(=O)OCCCCCC)(OC(=O)CCC)C(=O)OCCCCCC",
    "group": "class 0"
  },
  {
    "compound": "c1ccc2cc3ccccc3cc2c1",
    "group": "class 0"
  },
  {
    "compound": "c1ccc2ncccc2c1",
    "group": "class 0"
  },
  {
    "compound": "CC(C)CC(C)O (configuration not stated)",
    "group": "class 0"
  },
  {
    "compound": "OC(Cn1cncn1)(Cn1cncn1)c1ccc(F)cc1F",
    "group": "class 0"
  },
  {
    "compound": "CNC(C)=O",
    "group": "class 0"
  },
  {
    "compound": "CC(C)C(=O)Nc1ccc([N+](=O)[O-])c(C(F)(F)F)c1",
    "group": "class 0"
  },
  {
    "compound": "CCCCCOC(C)=O",
    "group": "class 0"
  },
  {
    "compound": "C=CN1CCCC1=O",
    "group": "class 0"
  },
  {
    "compound": "C=CCc1cc(S(=O)(=O)c2ccc(O)c(CC=C)c2)ccc1O",
    "group": "class 0"
  },
  {
    "compound": "NNC(=O)c1ccncc1",
    "group": "class 0"
  },
  {
    "compound": "CCn1nc(C)c2c1C(=O)NCC(c1ccc(O)cc1)=N2",
    "group": "class 0"
  }
]

---

Read-out: Thyroid Hormone Responsive (THRSP), THRSP (gene 7069)
experiment_description: LTEA_HepaRG_THRSP: Life Technologies and Expression Analysis (LTEA) Assay for Thyroid Hormone Responsive (THRSP) using HepaRG (AID 2283536)
measurement_conditions: mRNA level, 48 h; actives raise or lower the signal
Activity calls are given as the source filed them. Rule for the calls: active = hit-call score of the fitted dose curve at least 0.9, where 1 is the maximum; inactive = score below 0.9.
Outcomes: active, inactive

[
  {
    "compound": "COCc1nnc(-c2ccc[n+]([O-])c2)n1-c1c(Cl)c(Cl)cc2[nH]c(=O)c(=O)[nH]c12",
    "group": "inactive"
  },
  {
    "compound": "O=S1(=O)CCCO1",
    "group": "inactive"
  },
  {
    "compound": "C[C@]12C=CC(=O)C=C1CC[C@H]1[C@@H]3C[C@@H](O)[C@](O)(C(=O)CO)[C@@]3(C)C[C@H](O)[C@@]12F",
    "group": "inactive"
  },
  {
    "compound": "OCCNCCO",
    "group": "inactive"
  },
  {
    "compound": "c1ccc2ncccc2c1",
    "group": "inactive"
  },
  {
    "compound": "CCCCCCCCCCCCCCO",
    "group": "inactive"
  },
  {
    "compound": "Cn1cc[nH]c1=S",
    "group": "inactive"
  },
  {
    "compound": "C=CCc1cc(S(=O)(=O)c2ccc(O)c(CC=C)c2)ccc1O",
    "group": "active"
  },
  {
    "compound": "COS(C)(=O)=O",
    "group": "inactive"
  },
  {
    "compound": "C[C@@H](Oc1ccc(CNC(=O)c2cccnc2Oc2ccc3c(c2)OCO3)c(F)c1)C(=O)O",
    "group": "inactive"
  },
  {
    "compound": "Cc1ccc(S(=O)(=O)NC(=O)NN2CCCCCC2)cc1",
    "group": "inactive"
  },
  {
    "compound": "CCN(CC)C(=S)SSC(=S)N(CC)CC",
    "group": "inactive"
  },
  {
    "compound": "Nc1ccn([C@@H]2O[C@H](CO)[C@@H](O)[C@@H]2O)c(=O)n1",
    "group": "inactive"
  },
  {
    "compound": "O=C(O)c1ccc2c(c1)nc(C(=O)NC1CCN(C3CC3)CC1)n2Cc1cc(-c2ccc(Cl)s2)on1",
    "group": "inactive"
  },
  {
    "compound": "CC1(C)C(=O)N(Cl)C(=O)N1Cl",
    "group": "inactive"
  },
  {
    "compound": "c1ccc2cc3ccccc3cc2c1",
    "group": "inactive"
  },
  {
    "compound": "CC[C@H](C)C(=O)O[C@H]1C[C@H](O)C=C2C=C[C@H](C)[C@H](CC[C@@H](O)C[C@@H](O)CC(=O)O)[C@H]21",
    "group": "active"
  },
  {
    "compound": "CCn1nc(C)c2c1C(=O)NCC(c1ccc(O)cc1)=N2",
    "group": "inactive"
  },
  {
    "compound": "CCOC(N)=O",
    "group": "inactive"
  },
  {
    "compound": "Cc1nccn1-c1ccc(Sc2cccc(C3(C(N)=O)CCOCC3)c2)cc1",
    "group": "active"
  },
  {
    "compound": "CCCc1ccccc1",
    "group": "inactive"
  },
  {
    "compound": "CCCCOC(=O)c1ccccc1",
    "group": "inactive"
  },
  {
    "compound": "CCCCCCCCCCCCCCCCOS(=O)(=O)O",
    "group": "active"
  },
  {
    "compound": "CC(=O)c1ccccc1",
    "group": "inactive"
  },
  {
    "compound": "C=CN1CCCC1=O",
    "group": "inactive"
  },
  {
    "compound": "OC(CCl)CCl",
    "group": "inactive"
  },
  {
    "compound": "OCC(CO)(CO)CO",
    "group": "inactive"
  }
]
